Reference source for all entries: patent US20180320179A1

# System: Zymoseptoria tritici (SEPTTR-184)
# test-details: Cyp51 dsRNA tile (fragment) foliar application bioassay (Example 6)
# Format: in vivo
# condition-details: 3 days curative; calculated from disease control
metric: ED50 (ppm) SEPTTR-184 3DC

Item: MgCyp51-T3: dsRNA tile of Zymoseptoria tritici Cyp51, 230 bp, location 450-679 (nucleic acid, listed as Zymoseptoria tritici) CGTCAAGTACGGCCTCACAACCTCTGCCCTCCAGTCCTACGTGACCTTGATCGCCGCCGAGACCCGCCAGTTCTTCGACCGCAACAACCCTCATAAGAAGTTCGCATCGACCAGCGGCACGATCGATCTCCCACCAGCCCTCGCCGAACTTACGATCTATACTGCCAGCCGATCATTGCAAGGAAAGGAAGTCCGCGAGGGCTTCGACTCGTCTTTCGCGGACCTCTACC | ED50 (ppm) SEPTTR-184 3DC: <3.125 ppm
